test system: RXF 393 renal; experiment: NCI tumour cell line growth inhibition, 48 h
measured metric: TGI

Examples with their reported TGI follow.
compound: CCOC(=O)C1=C(O)c2c(OC)ccc(OC)c2C(=O)C1=O
TGI: > 100 µM
//
compound: N#Cc1c2c(c(Nc3ccc(Cl)cc3)n3c1nc1ccccc13)CCCC2
TGI: > 85.1 µM
//
compound: CNc1nc(OC)c2c(n1)[n+](C)cn2C
TGI: > 100 µM
//
compound: CC(=O)OC/C=C/Cn1nc(Br)c(=O)[nH]c1=O
TGI: > 100 µM
//
compound: Cc1cc(C2(c3cc(C)c(O)c4ncccc34)OC(=O)c3ccccc32)c2cccnc2c1O
TGI: > 100 µM
//
compound: OCCn1c(-c2ccncc2)c(-c2ccc(F)cc2)c2ncccc21
TGI: > 25 µM
//
compound: NS(=O)(=O)C1CCCCC1C(=O)NNC(=O)C(=O)Nc1nc(=S)[nH][nH]1 (centres undefined)
TGI: > 100 µM
//
compound: Cc1nnc(N)s/c1=N/O
TGI: > 100 µM

Attention now turns to another entry.
Asked: Form: Entry = `COc1ccc(-c2cc(=O)c3cc(OC)c(OC)cc3[nH]2)cc1OC` | System = RXF 393 renal | TGI = ____
Given back: > 100 µM

---

system: NCI-H522 lung; test: NCI tumour cell line growth inhibition, 48 h
measured metric: TGI

A selection of reference data follows.
molecule: COc1ccc2c(C=O)c3n(c(=O)c2c1OC)CCc1cc2c(cc1-3)OCO2
observed result: > 100 µM

molecule: CCOC(=O)C1C(=O)C(=O)N2CCc3c([nH]c4ccccc34)C12 (stereo unspecified)
observed result: > 100 µM

molecule: COc1ccc(N=C(SSC(=Nc2ccc(OC)cc2)c2ccc([N+](=O)[O-])o2)c2ccc([N+](=O)[O-])o2)cc1
observed result: 0.953 µM

Asked: // query TGI value for entry `Nc1nc(N)c2ncn(Cc3ccccc3)c2n1`
Given back: > 100 µM

Asked: Which TGI value belongs to `CCOC(=O)/C(=C/c1ccc[nH]1)P(=O)(OCC)OCC` ?
Given back: > 100 µM

Asked: Recorded TGI for `CC(=O)Nc1ccc(C(=O)COc2cccc(/C=C3\CCc4ccccc4C3=O)c2)cc1` , please?
Given back: 32.8 µM

---

system: BT-549 breast; assay: NCI tumour cell line growth inhibition, 48 h
Reported values of TGI for individual entries

compound: CCCCCCCCCCCCCCCC(=O)OCC(COP(=O)(O)OCCNC(=O)CCSSc1ccccn1)OC(=O)CCCCCCCCCCCCCCC (stereo not drawn)
TGI: > 100 µM

Asked: // TGI lookup, key: `CN1Cc2c(ccc3c2OCO3)[C@@H]2[C@H](O)Cc3cc4c(cc3[C@@H]21)OCO4`
Given back: > 100 µM

Asked: Quick one: TGI of CCCCC(C)(C/C=C/[C@@H]1[C@@H](C(O)CCCCCC(=O)OC)C(=O)C[C@H]1O[Si](C)(C)C(C)(C)C)O[Si](C)(C)C (stereo partly drawn) ?
Given back: > 100 µM

---

This listing pairs compounds with measured TGI.
test system: SN12C renal; assay: NCI tumour cell line growth inhibition, 48 h

compound: Cn1c(=O)c(C#N)c(O)c2cc3ccccc3nc21
measured metric: TGI
observed result: > 100 µM

compound: CCOC(=O)C1(NC(=O)OC(C)(C)C)CCc2[nH]oc(=O)c2C1 (stereo unspecified)
measured metric: TGI
observed result: > 100 µM

compound: CCOP(=O)(OCC)/C(C#N)=C(\C)c1ccco1
measured metric: TGI
observed result: > 10 µM

Asked: Look up TGI for this compound: `O=C(/C=C/c1ccc(OCC(=O)N2CCN(c3ccccc3)CC2)cc1)c1ccccc1`
Given back: > 100 µM

Asked: // returns reported TGI for input O=[N+]([O-])c1cccc(C2=NOC3CCCC23)c1 (stereo unspecified)
Given back: > 100 µM

Asked: // query TGI value for entry `c1csc(-c2[nH]nc3c2CCc2ccccc2-3)c1`
Given back: 30.2 µM

---

system: NCI/ADR-RES ovarian; assay: NCI tumour cell line growth inhibition, 48 h
measured metric: TGI

compound: Cn1c(=O)c2c(n(C)c1=O)n1c(=O)c3ccccc3nc1n2C
observed result: > 100 µM
--
compound: O=C(Nc1cccc(C(F)(F)F)c1)Nc1ccc(OCc2nnc(-c3ccccc3)o2)c(F)c1
observed result: 26.9 µM
--
compound: COc1ccc(Cl)cc1Nc1nc(C(F)(F)F)ccc1C(=O)N/N=C/c1ccc(Cl)cc1
observed result: > 100 µM
--
compound: COc1ccc(-c2cc(=O)c3cc(OC)c(OC)cc3[nH]2)cc1OC
observed result: > 100 µM
--
compound: C=CCCC1(CCP(=O)(c2ccccc2)c2ccccc2)OCCO1
observed result: > 100 µM
--
compound: CC(=O)OC1C(C)OC(OC2C[C@](O)(C(C)=O)Cc3c(O)c4c(c(O)c32)C(=O)c2ccccc2C4=O)C(F)C1OC(C)=O (stereo partly drawn)
observed result: 9.46 µM
--
compound: NNC(=O)COc1nc(-c2cccs2)nc2ccc(I)cc12
observed result: 91.9 µM

Moving on to the next compound.
Asked: Query (compound): `CCN(CCCl)c1ccc(NC(=O)c2cc(C(=O)NCCN(C)C)cc(C(=O)Nc3ccc(N(CC)CCCl)cc3)c2)cc1` ; field requested: TGI
Given back: > 100 µM

---

test system: HCT-15 colon; assay: NCI tumour cell line growth inhibition, 48 h
measured metric: GI50

chemical structure: Clc1ccc(N=CNc2ccc(-c3nc4ccccc4[nH]3)cc2)cc1
GI50: 33100 nM
//
chemical structure: CCc1c[nH]c2ncnc(N3CC[C@](N)(CNC(=O)c4ccc(F)cc4F)C3)c12
GI50: 15500 nM

Asked: Item under review: `COc1cc(/C=C/C(=O)c2c(-c3ccc(Cl)cc3)nc3sc(C)nn23)cc(OC)c1OC` . Reported GI50?
Given back: 15800 nM

Asked: Dear colleague, I am looking for the recorded GI50 of the following compound: `COc1ccc(S(=O)(=O)NCCCNc2nccc(-c3c(-c4ccc(F)cc4)nc4sccn34)n2)cc1`
Given back: 3600 nM

Asked: Sample `COc1cc(-c2nn(-c3cccc(NC(=O)c4cccc(C(F)(F)F)c4)c3)cc2-c2ccncc2)ccc1Cl` — what was its GI50?
Given back: 1550 nM

Asked: Using the record for `CN1CCN(Cc2ccc(NC(=O)c3cncc(C#Cc4cnc5cccnn45)c3)cc2C(F)(F)F)CC1` , report its GI50.
Given back: 1470 nM

Asked: Given the compound `CN(C)C(=O)c1cc2cnc(Nc3ccc(N4CCNCC4)cn3)nc2n1C1CCCC1` , what is its reported GI50?
Given back: 16600 nM

Asked: What GI50 value was documented for this compound, `ClCc1ccc(Cn2cnc3nc(Cl)nc(Cl)c32)cc1` ?
Given back: 481 nM

Asked: Look at this compound and give its reported GI50. `CCC(=C(c1ccc(OCCN(CC)CC)cc1)c1ccc(OCCN(CC)CC)cc1)c1ccc(Cl)cc1`
Given back: 541 nM

Asked: Fill blank: measured GI50 of the compound `O=C(NCc1cccnc1)c1ccc([N+](=O)[O-])o1` is ____.
Given back: 647 nM

---

Parameter TGI: see the listing below.
tested on: RPMI-8226 leukemia; test: NCI tumour cell line growth inhibition, 48 h

Solved entries (count: 2):
compound: CCCCCCCCCCCCCCCC(=O)OCC(COP(=O)(O)OCCNC(=O)CCSSc1ccccn1)OC(=O)CCCCCCCCCCCCCCC (stereo not drawn)
observed result: > 100 µM

compound: CC(C)=C[C@@H]1C[C@H](C)[C@H]2CC[C@H](C)[C@H]3C(=O)C(O)=C(C)C(=O)[C@]123
observed result: > 100 µM

Moving on to the next compound.
Asked: Would you kindly share the measured TGI for COc1cc(COC(=O)NC(Cc2cccs2)C(=O)O)c([N+](=O)[O-])cc1OC (stereo not drawn) ?
Given back: > 100 µM

---

tested on: HCT-116 colon; assay: NCI tumour cell line growth inhibition, 48 h
The reader will find reported log10 of TGI values listed item by item below.
# log10 transformed; quantity=TGI; unit=µM

Past entries and their recorded results:
chemical structure: Cc1c(C(=O)C/C(=N/NC(=O)CC#N)C(N)=O)[n+](=O)c2ccccc2n1[O-]
observed result: 1.97
--
chemical structure: CN(C)C(=O)c1cc2cnc(Nc3ccc(N4CCNCC4)cn3)nc2n1C1CCCC1
observed result: 1.69
--
chemical structure: O=C(Nc1nc2ccc([N+](=O)[O-])cc2s1)c1cc([N+](=O)[O-])ccc1Cl
observed result: 0.73
--
chemical structure: COc1cccc(OC)c1/C=N\N1C(=O)c2ccccc2C1=O
observed result: 1.94
--
chemical structure: Oc1ccc(CCNc2nc3ccccc3c3[nH]c4ccccc4c23)cc1
observed result: 0.46
--
chemical structure: O=C1COc2c(CCNCCN(C(=O)CCNCCc3ccc(Cl)c(Cl)c3)C3CCCCC3)ccc(O)c2N1
observed result: 1.45

From here, focus on the item given below.
Asked: Fill in: log10 of TGI of `CCn1c(SC)nnc1-c1cc2c([nH]c3ccccc32)c(-c2cccc(O)c2)n1` is ___
Given back: 1.15
